Target: c-Myc protein (Homo sapiens)
Construct: endogenous in cells; host or cells: HL60 cells
Test: Ability of compounds to degrade c-Myc protein in HL60 cells (ELISA)
Assay type: cell-based
Details: HL-60, 1 μM compound, 24 h, read-out: HL60 cells Protein degradation rate (1 μM)
Protocol: I Activity test 1: Ability of compounds to degrade c-Myc protein in HL60 cells: HL60 cells in the exponential growth phase were centrifuged, diluted with fresh culture mediums to 6×10^4 cells/100 μL and plated into a 96-well plate at 100 μL per well. Preparation of test compounds: the compounds were weighed and diluted with DMSO to a 10 mM stock solution for later use. […] 3. Effect of drugs on c-Myc in cells as determined by ELISA […]
value-kind: inhibition at 1 µM

Check out these entries, answers already filled in.
{"columns": ["molecule", "result"],
 "data": [
  ["O=C(Cn1c2ncccc2c2cccnc21)NCCCCCCNC(=O)c1ccc2c(c1)C(=O)N(C1CCC(=O)NC1=O)C2=O (stereo not drawn) [A4]", "10 to 30%"],
  ["CN(CCc1cccc2ccccc12)Cc1ccc(CC(=O)Nc2ccc3c(c2)C(=O)N(C2CCC(=O)NC2=O)C3=O)cc1 (stereo not drawn) [A167]", "60 to 90%"],
  ["O=C(CCc1cccc(Cl)c1Cl)NCc1ccc(CNC(=O)c2ccc3c(c2)C(=O)N(C2CCC(=O)NC2=O)C3=O)cc1 (stereo not drawn) [A61]", "60 to 90%"],
  ["CS(=O)(=O)N(CCn1c2ccccc2c2cccnc21)Cc1ccc(CNC(=O)c2ccc3c(c2)C(=O)N(C2CCC(=O)NC2=O)C3=O)cc1 (stereo not drawn) [A78]", "60 to 90%"],
  ["CN(CCc1cccc2ccccc12)Cc1ccc(CNC(=O)c2ccc3c(c2)C(=O)N(C2CCC(=O)NC2=O)C3=O)cc1 (stereo not drawn) [A83]", "30 to 60%"]
]}

Query string: For O=C(Cc1cccc2ccccc12)NCc1ccc(CNC(=O)c2ccc3c(c2)C(=O)N(C2CCC(=O)NC2=O)C3=O)c(C(F)(F)F)c1 (stereo not drawn) [A117] , write its inhibition at 1 µM.
Result string: 60 to 90%

Query string: For CN(CCc1ccc(Cl)c(Cl)c1)Cc1ccc(CC(=O)Nc2ccc3c(c2)C(=O)N(C2CCC(=O)NC2=O)C3=O)cc1 (stereo not drawn) [A170] , write its inhibition at 1 µM.
Result string: 60 to 90%

Query string: For O=C(Cc1cccc2ccccc12)NCc1ccc(CNC(=O)c2ccc3c(c2)CN(C2CCC(=O)NC2=O)C3=O)c(C(F)(F)F)c1 (stereo not drawn) [A159] , write its inhibition at 1 µM.
Result string: 60 to 90%

Query string: For CC(C)(C(=O)NCc1ccc(CNC(=O)c2ccc3c(c2)C(=O)N(C2CCC(=O)NC2=O)C3=O)cc1)c1cccc2ccccc12 (stereo not drawn) [A31] , write its inhibition at 1 µM.
Result string: 60 to 90%

###

Biological target: c-Myc protein (Homo sapiens, UniProt P01106)
Construct: endogenous in cells; host or cells: HL60 cells
Sequence (P01106 whole entry): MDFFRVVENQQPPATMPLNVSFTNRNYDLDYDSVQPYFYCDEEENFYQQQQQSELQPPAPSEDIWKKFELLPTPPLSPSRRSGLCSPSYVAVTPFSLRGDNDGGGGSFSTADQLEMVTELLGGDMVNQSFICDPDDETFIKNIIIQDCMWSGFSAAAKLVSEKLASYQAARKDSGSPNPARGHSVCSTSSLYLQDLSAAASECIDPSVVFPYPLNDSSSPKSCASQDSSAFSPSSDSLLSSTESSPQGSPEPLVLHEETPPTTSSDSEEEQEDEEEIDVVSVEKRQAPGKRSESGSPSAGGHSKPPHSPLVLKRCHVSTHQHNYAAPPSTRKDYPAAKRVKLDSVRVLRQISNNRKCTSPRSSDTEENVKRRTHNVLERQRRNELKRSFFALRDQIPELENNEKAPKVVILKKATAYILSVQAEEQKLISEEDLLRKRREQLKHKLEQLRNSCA
Experiment: Ability of compounds to degrade c-Myc protein in HL60 cells (ELISA)
Format: cell-based
Settings: HL-60, 1 μM compound, 24 h, read-out: HL60 cells Protein degradation rate (1 μM)
Recorded inhibition at 1 µM values for a group of molecules are listed next.

Check out these entries, answers already filled in.
{"columns": ["molecule", "result"],
 "data": [
  ["O=C(Cc1c(F)ccc2ccccc12)NCc1ccc(CNC(=O)c2ccc3c(c2)CN(C2CCC(=O)NC2=O)C3=O)c(C(F)(F)F)c1 (stereo not drawn)", "60 to 90%"],
  ["O=C(Cc1cccc2ccc(F)cc12)NCc1ccc(CNC(=O)c2ccc3c(c2)CN(C2CCC(=O)NC2=O)C3=O)cc1 (stereo not drawn)", "60 to 90%"],
  ["O=C(Cn1c2ccccc2c2cccnc21)NCc1ccc(CNC(=O)c2ccc3c(c2)C(=O)N(C2CCC(=O)NC2=O)C3=O)nc1 (stereo not drawn)", "60 to 90%"]
]}

Query string: GET inhibition at 1 µM | system: c-Myc protein (Homo sapiens, UniProt P01106) | item: O=C(Cc1nccc2ccccc12)NCc1ccc(CNC(=O)c2ccc3c(c2)CN(C2CCC(=O)NC2=O)C3=O)c(F)c1 (stereo not drawn)
Result string: 30 to 60%

Query string: GET inhibition at 1 µM | system: c-Myc protein (Homo sapiens, UniProt P01106) | item: O=C1CCC(N2C(=O)c3ccc(C(=O)NC[C@H]4CC[C@H](CNC(=O)Nc5cncc6ccccc56)CC4)cc3C2=O)C(=O)N1 (stereo partly drawn)
Result string: 30 to 60%

Query string: GET inhibition at 1 µM | system: c-Myc protein (Homo sapiens, UniProt P01106) | item: CN(CCc1ccc(Cl)cc1Cl)Cc1ccc(CC(=O)Nc2ccc3c(c2)CN(C2CCC(=O)NC2=O)C3=O)c(F)c1 (stereo not drawn)
Result string: 60 to 90%
